From: ChEMBL document CHEMBL3045119

Measured inhibition at 50 µg/mL values are reported for all entries that follow.
- Test system: Alternaria solani
- assay-summary: Fungicidal activity against Alternaria solani assessed as inhibition of mycelium growth at 50 ug/mL by mycelium growth rate method
- Format: functional
Answer by giving the amount and then stating its unit.

Prompt: Item `CCOC(=O)c1cccc2nc3cc(N)ccc3nc12` has what recorded inhibition at 50 µg/mL?
Response: 29.4%

Prompt: Next: `CCCCOC(=O)c1cccc2nc3cc(OCCCC)c(N)cc3nc12`
Response: 17.4%

Prompt: Subsequent entry: `Nc1ccc2nc3cccc(C(=O)O)c3nc2c1`
Response: 5.9%

Prompt: // repeat for `CCCOC(=O)c1cccc2nc3cc(N)c(OCCC)cc3nc12` and report
Response: 20%

Prompt: Please give the result for `COC(=O)c1cccc2nc3cc(C(=O)CCc4ccccc4)ccc3nc12` too.
Response: 19.1%

Next:
Prompt: Consider the molecule shown here: `CCOC(=O)c1cccc2nc3ccc(N)cc3nc12` What is its recorded inhibition at 50 µg/mL?
Response: 20%

Prompt: Now this one: `CCCOC(=O)c1cccc2nc3ccc(N)cc3nc12`
Response: 20.2%

Prompt: Continue with `COC(=O)c1cccc2nc3c(S(=O)(=O)c4ccccc4[N+](=O)[O-])cccc3nc12`
Response: 3.4%

Prompt: Item: `COC(=O)c1cccc2nc3cc(S(=O)(=O)c4ccc(C)cc4)ccc3nc12`
Response: 33.3%

Prompt: // next record `COC(=O)c1cccc2nc3cc(C(=O)COC(C)=O)ccc3nc12`
Response: 6.5%

Prompt: Similarly, `COC(=O)c1cccc2nc3cc(S(=O)(=O)c4ccc([N+](=O)[O-])cc4)ccc3nc12` ?
Response: 6.5%
